Tested on: Acinetobacter baumannii
method.description: Antibacterial activity against Acinetobacter baumannii ATCC 19606 after 18 to 20 hrs by microbroth dilution method
Format: functional
Where a SMILES comes first, the peptide text is derived from it. [ ]: non-standard residue; d: D form. Orn = NCCC[C@H](N)C(=O)O
measurement.kind: MIC (µM)

[[record]]
compound = "CC[C@H](C)[C@H](NC(=O)[C@H](CCCCN)NC(=O)CNC(=O)[C@H](CC(C)C)NC(=O)[C@H](Cc1ccccc1)NC(=O)[C@H](CCCCN)NC(=O)[C@H](CO)NC(=O)[C@H](Cc1ccccc1)NC(=O)[C@H](Cc1c[nH]c2ccccc12)NC(=O)[C@H](CCC(N)=O)NC(=O)[C@@H](NC(=O)[C@@H](N)Cc1ccccc1)C(C)C)C(=O)N[C@@H](CC(C)C)C(N)=O (H-FVQWFSKFLGKIL-NH2)"
measurement_kind = "MIC"
result = 6

[[record]]
compound = "CC[C@H](C)[C@H](NC(=O)[C@H](CCCNC(=N)N)NC(=O)CNC(=O)[C@H](CC(C)C)NC(=O)[C@H](Cc1ccccc1)NC(=O)[C@H](CCCCN)NC(=O)[C@H](CO)NC(=O)[C@H](Cc1ccccc1)NC(=O)[C@H](Cc1c[nH]c2ccccc12)NC(=O)[C@H](CCCNC(=N)N)NC(=O)[C@@H](NC(=O)[C@@H](N)Cc1ccccc1)C(C)C)C(=O)N[C@@H](CC(C)C)C(N)=O (H-FVRWFSKFLGRIL-NH2)"
measurement_kind = "MIC"
result = 6

[[record]]
compound = "CC[C@H](C)[C@H](NC(=O)[C@H](CCCN)NC(=O)CNC(=O)[C@H](CC(C)C)NC(=O)[C@H](Cc1ccccc1)NC(=O)[C@H](CCCCN)NC(=O)[C@H](CO)NC(=O)[C@H](Cc1ccccc1)NC(=O)[C@H](Cc1c[nH]c2ccccc12)NC(=O)[C@H](CCC(N)=O)NC(=O)[C@@H](NC(=O)[C@@H](N)Cc1ccccc1)C(C)C)C(=O)N[C@@H](CC(C)C)C(N)=O (H-FVQWFSKFLG[Orn]IL-NH2)"
measurement_kind = "MIC"
result = 12


###

Catalogue of molecules with associated MIC
Test system: Acinetobacter baumannii
method.description: Antibacterial activity against Acinetobacter baumannii ATCC 19606 after 18 to 20 hrs by microbroth dilution method
Assay type: functional
Where a SMILES comes first, the peptide text is derived from it.
measurement.kind: MIC

[[record]]
molecule = "CC[C@H](C)[C@H](NC(=O)[C@H](CCCNC(=N)N)NC(=O)[C@H]1CCCN1C(=O)[C@H](CC(C)C)NC(=O)[C@H](Cc1ccccc1)NC(=O)[C@H](CCCCN)NC(=O)[C@H](CO)NC(=O)[C@H](Cc1ccccc1)NC(=O)[C@H](Cc1c[nH]c2ccccc12)NC(=O)[C@@H]1CCCN1C(=O)[C@@H](NC(=O)[C@@H](N)Cc1ccccc1)C(C)C)C(=O)N[C@@H](CC(C)C)C(N)=O"
target_or_system = "Acinetobacter baumannii"
result = "48 µM"

[[record]]
molecule = "CC[C@H](C)[C@H](NC(=O)[C@H](CCCNC(=N)N)NC(=O)CNC(=O)[C@H](CC(C)C)NC(=O)[C@H](Cc1ccccc1)NC(=O)[C@H](CCCCN)NC(=O)[C@H](CO)NC(=O)[C@H](Cc1ccccc1)NC(=O)[C@H](Cc1c[nH]c2ccccc12)NC(=O)[C@H](CCC(N)=O)NC(=O)[C@@H](NC(=O)[C@@H](N)Cc1ccccc1)C(C)C)C(=O)N[C@@H](CC(C)C)C(N)=O [TEMPORIN L]"
target_or_system = "Acinetobacter baumannii"
result = "6 µM"

[[record]]
molecule = "CC[C@H](C)[C@H](NC(=O)[C@H](CCCNC(=N)N)NC(=O)CNC(=O)[C@H](CC(C)C)NC(=O)[C@H](Cc1ccccc1)NC(=O)[C@H](CCCCN)NC(=O)[C@H](CO)NC(=O)[C@H](Cc1ccccc1)NC(=O)[C@H](Cc1c[nH]c2ccccc12)NC(=O)[C@@H]1CCCN1C(=O)[C@H](CC(C)C)NC(=O)[C@@H](N)Cc1ccccc1)C(=O)N[C@@H](CC(C)C)C(N)=O (H-FLPWFSKFLGRIL-NH2)"
target_or_system = "Acinetobacter baumannii"
result = "12 µM"

[[record]]
molecule = "CC[C@H](C)[C@H](NC(=O)[C@H](CCCNC(=N)N)NC(=O)CNC(=O)[C@H](CC(C)C)NC(=O)[C@H](Cc1ccccc1)NC(=O)[C@H](CCCNC(=N)N)NC(=O)[C@H](CO)NC(=O)[C@H](Cc1ccccc1)NC(=O)[C@H](Cc1c[nH]c2ccccc12)NC(=O)[C@H](CCC(N)=O)NC(=O)[C@@H](NC(=O)[C@@H](N)Cc1ccccc1)C(C)C)C(=O)N[C@@H](CC(C)C)C(N)=O (H-FVQWFSRFLGRIL-NH2)"
target_or_system = "Acinetobacter baumannii"
result = "6 µM"

[[record]]
molecule = "CC[C@H](C)[C@H](NC(=O)[C@H](CCCNC(=N)N)NC(=O)[C@H](CC(C)C)NC(=O)[C@H](CC(C)C)NC(=O)[C@H](Cc1ccccc1)NC(=O)[C@H](CCCCN)NC(=O)[C@H](CO)NC(=O)[C@H](Cc1ccccc1)NC(=O)[C@H](Cc1c[nH]c2ccccc12)NC(=O)[C@H](CCC(N)=O)NC(=O)[C@@H](NC(=O)[C@@H](N)Cc1ccccc1)C(C)C)C(=O)N[C@@H](CC(C)C)C(N)=O (H-FVQWFSKFLLRIL-NH2)"
target_or_system = "Acinetobacter baumannii"
result = "48 µM"

